# Tested system: SAE (Homo sapiens (Human), UniProt Q9UBT2)
# Sequence (Q9UBT2 whole entry): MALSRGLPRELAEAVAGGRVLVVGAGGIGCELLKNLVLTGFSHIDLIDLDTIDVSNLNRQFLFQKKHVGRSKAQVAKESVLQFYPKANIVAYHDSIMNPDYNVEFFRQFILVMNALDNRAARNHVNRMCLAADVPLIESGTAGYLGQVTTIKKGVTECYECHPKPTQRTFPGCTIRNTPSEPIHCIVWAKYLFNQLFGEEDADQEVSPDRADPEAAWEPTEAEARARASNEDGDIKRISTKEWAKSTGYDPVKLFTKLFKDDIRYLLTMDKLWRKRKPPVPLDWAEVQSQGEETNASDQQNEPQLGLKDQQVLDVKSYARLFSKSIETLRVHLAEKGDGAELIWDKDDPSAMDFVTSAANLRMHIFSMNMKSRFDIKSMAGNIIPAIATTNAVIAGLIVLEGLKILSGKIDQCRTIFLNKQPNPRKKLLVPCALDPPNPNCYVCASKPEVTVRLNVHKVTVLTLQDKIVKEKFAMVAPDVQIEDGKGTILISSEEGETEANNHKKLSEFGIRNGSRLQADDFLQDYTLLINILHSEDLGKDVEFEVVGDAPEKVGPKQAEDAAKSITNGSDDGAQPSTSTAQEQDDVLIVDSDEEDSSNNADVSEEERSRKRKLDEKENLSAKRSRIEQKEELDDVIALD
# Sequence (Q9UBE0 whole entry partner): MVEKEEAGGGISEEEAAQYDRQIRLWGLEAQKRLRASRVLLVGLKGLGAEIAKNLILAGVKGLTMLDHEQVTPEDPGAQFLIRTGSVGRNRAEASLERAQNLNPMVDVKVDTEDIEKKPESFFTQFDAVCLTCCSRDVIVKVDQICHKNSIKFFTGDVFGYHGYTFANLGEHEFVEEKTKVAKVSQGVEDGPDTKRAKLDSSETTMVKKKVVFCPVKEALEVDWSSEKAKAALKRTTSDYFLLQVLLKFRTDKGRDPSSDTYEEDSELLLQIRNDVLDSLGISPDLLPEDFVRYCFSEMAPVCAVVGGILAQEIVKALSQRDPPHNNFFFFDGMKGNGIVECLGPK
# Assay details: In vitro inhibitory activity assay against SAE (SUMO-2/3 immunofluorescence in HCT116 cells)
# Type: cell-based
# Condition label: 6 h incubation, class symbols, read-out: SUMO IF IC50
pIC50: −log10 of the molar value.
Readout label: pIC50

Molecule	Reading
NS(=O)(=O)OC[C@H]1C[C@@H](Nc2ncncc2C(=O)c2cc3c(s2)OCCC32NCCc3ccc(Cl)cc32)C[C@@H]1O (stereo partly drawn) [Compound 38]	6.70 to 7.30
NS(=O)(=O)OC[C@H]1C[C@@H](Nc2ncncc2C(=O)c2cc3c(s2)CC[C@@]32OCCc3ccc(F)cc32)C[C@@H]1O [Compound 284]	< 6.70
NS(=O)(=O)OC[C@H]1C[C@@H](Nc2ncncc2C(=O)c2cc3c(s2)CCC[C@]32NCCc3ccccc32)C[C@@H]1O [Compound 3]	≥ 7.30
CN1Cc2sc(C(=O)c3cncnc3N[C@@H]3C[C@H](COS(N)(=O)=O)[C@@H](O)C3)cc2[C@]2(C1)OCCc1ccccc12 [Compound 255]	6.70 to 7.30
NS(=O)(=O)OC[C@H]1C[C@@H](Nc2ncncc2C(=O)c2cc3c(s2)CCC[C@]32NCCc3ccc(C4CC4)cc32)C[C@@H]1O [Compound 203]	6.70 to 7.30
NS(=O)(=O)OC[C@H]1C[C@@H](Nc2ncncc2C(=O)c2cc3c(s2)CCC[C@]32OCCc3ccccc32)C[C@@H]1O [Compound 246]	6.70 to 7.30

Value source: patent US20260035382A1
